target: IκBα ubiquitinating enzyme (SCF complex: ROC1, Cullin1, Skp1, His-TrCP1; with E1, UbcH5b) (Homo sapiens, UniProt P62877+P63208+Q13616+Q9Y297); construct: His (polyhistidine); made in house; host or cells: insect cells (baculovirus) for the SCF complex and His-E1; E. coli for His-UBCH5b; assay: Measurement of ubiquitinating enzyme activity (IκBα ubiquitination, time-resolved fluorescence with Eu(K)-labeled ubiquitin and XL665-labeled anti-GST antibody); format: biochemical; settings: enzyme activity inhibition test, method (1), Table 5; read-out: EVALUATION
Sequence (Q9Y297 whole entry): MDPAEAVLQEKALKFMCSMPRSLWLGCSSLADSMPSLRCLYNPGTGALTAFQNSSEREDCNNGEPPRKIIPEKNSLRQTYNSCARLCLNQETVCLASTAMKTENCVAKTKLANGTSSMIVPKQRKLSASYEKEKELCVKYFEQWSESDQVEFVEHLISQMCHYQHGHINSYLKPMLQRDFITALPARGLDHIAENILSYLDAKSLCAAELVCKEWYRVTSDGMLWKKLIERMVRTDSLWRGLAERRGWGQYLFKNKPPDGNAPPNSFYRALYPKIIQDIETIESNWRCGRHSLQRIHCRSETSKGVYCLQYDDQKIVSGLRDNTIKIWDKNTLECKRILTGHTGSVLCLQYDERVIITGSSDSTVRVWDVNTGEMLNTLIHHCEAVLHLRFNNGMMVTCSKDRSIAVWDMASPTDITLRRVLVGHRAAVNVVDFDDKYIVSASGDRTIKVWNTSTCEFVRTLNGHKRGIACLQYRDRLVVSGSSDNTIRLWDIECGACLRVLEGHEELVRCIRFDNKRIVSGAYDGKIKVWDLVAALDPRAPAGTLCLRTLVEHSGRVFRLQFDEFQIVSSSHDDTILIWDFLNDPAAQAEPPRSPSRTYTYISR
Sequence (Q13616 whole entry): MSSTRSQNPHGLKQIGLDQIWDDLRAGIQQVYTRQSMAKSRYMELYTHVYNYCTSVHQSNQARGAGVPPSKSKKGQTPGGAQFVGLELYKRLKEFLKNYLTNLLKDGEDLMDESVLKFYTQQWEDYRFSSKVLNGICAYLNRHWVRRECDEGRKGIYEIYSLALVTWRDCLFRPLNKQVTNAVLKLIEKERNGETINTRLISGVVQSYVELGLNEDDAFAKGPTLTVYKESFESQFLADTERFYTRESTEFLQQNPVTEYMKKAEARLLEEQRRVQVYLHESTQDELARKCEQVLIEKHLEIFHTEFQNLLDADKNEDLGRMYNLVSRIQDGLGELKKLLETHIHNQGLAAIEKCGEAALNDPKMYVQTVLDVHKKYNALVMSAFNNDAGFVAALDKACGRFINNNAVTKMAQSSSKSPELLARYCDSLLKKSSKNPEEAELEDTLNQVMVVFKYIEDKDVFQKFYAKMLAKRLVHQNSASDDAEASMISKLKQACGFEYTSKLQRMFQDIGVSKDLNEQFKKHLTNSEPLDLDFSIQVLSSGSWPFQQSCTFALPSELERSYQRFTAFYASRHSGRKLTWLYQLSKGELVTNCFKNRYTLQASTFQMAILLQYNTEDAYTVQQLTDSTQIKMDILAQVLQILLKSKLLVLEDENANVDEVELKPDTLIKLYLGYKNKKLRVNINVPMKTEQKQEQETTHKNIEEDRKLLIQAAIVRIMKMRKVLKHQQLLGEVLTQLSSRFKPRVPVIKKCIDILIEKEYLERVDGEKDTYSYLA
Sequence (P63208 whole entry): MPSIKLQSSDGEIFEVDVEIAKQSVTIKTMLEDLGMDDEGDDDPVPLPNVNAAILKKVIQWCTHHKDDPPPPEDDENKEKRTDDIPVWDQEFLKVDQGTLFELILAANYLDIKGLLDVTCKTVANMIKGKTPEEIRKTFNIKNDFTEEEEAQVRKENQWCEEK
Sequence (P62877 whole entry): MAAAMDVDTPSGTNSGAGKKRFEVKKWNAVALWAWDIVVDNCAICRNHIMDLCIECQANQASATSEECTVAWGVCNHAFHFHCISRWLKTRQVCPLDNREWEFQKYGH
pIC50: −log10 of the molar value.
# pIC50 per record follows

Completed entries (count: 5):
COCCC1=NN(c2ccc(C(=O)O)cc2)C(=O)/C1=C\c1ccc(-c2ccccc2F)o1 : > 5.00
CC1=NN(c2ccc(C(=O)O)cc2)C(=O)/C1=C\c1c(C)nn(C)c1Cl : > 4.40
CC1=NN(c2ccc(C(=O)O)cc2)C(=O)/C1=C\c1ccc(-n2cncn2)cc1 : > 5.00
O=C1/C(=C\c2cccc3nccnc23)C(C2CC2)=NN1c1ccccc1 : > 4.40
COc1cc(/C=C2\C(=O)N(C)N=C2C)ccc1O : > 4.40

Enquiry: May I ask what pIC50 has been recorded for CC1=NN(c2ccc(S(N)(=O)=O)cc2)C(=O)/C1=C\c1ccc(OCC(N)=O)cc1 ?
Return: > 5.00

Enquiry: Request: CC1=NN(c2cccc(C(=O)O)c2)C(=O)/C1=C\c1ccc(N2CCN(C(=O)c3cnoc3)CC2)cc1
Return: > 5.00

Enquiry: Request: CC1=NN(c2ccc(S(N)(=O)=O)cc2)C(=O)C1=Cc1cccc(C(=O)O)c1
Return: 4.70 to 5.00

###

target: IκBα ubiquitinating enzyme (SCF complex: ROC1, Cullin1, Skp1, His-TrCP1; with E1, UbcH5b) (Homo sapiens, UniProt P62877+P63208+Q13616+Q9Y297); construct: His (polyhistidine); made in house; host or cells: insect cells (baculovirus) for the SCF complex and His-E1; E. coli for His-UBCH5b; assay: Measurement of ubiquitinating enzyme activity (IκBα ubiquitination, time-resolved fluorescence with Eu(K)-labeled ubiquitin and XL665-labeled anti-GST antibody); format: biochemical; conditions: enzyme activity inhibition test, method (1), Table 5; read-out: EVALUATION
pIC50: −log10 of the molar value.
MEASUREMENT TYPE: pIC50

Enquiry: May I ask what pIC50 has been recorded for CC1=NN(c2ccc(C(=O)O)cc2)C(=O)/C1=C\c1ccc(OCC(=O)N2CCCCC2)cc1 ?
Return: > 5.00

Enquiry: Request: CC1=NN(c2ccc(C(=O)O)cc2)C(=O)C1=Cc1c[nH]c2ccc(Cl)cc12
Return: > 5.00

Enquiry: Request: COc1ccc(C2=NN(c3ccccc3)C(=O)/C2=C\c2ccc3c(c2)OCCO3)cc1OC
Return: 4.70 to 5.00

Enquiry: Request: COc1cc(/C=C2\C(=O)N(c3ccc(C(=O)O)cc3)N=C2c2ccoc2)ccc1O
Return: > 5.00

Enquiry: Request: COc1cc(/C=C2\C(=O)N(c3ccccc3)N=C2c2ccoc2)ccc1OCc1ccccc1
Return: > 5.00

Enquiry: Request: O=C(O)c1ccc(N2N=C(c3ccncc3)/C(=C/c3ccc(-c4ccccc4F)o3)C2=O)cc1
Return: 4.70 to 5.00

Enquiry: Request: COc1cc(/C=C2\C(=O)N(c3cccc(C(=O)O)c3)N=C2C)ccc1OCc1c(C)noc1C
Return: 4.70 to 5.00

Enquiry: Request: COc1ccc(C2=NN(c3ccc(C(=O)O)cc3)C(=O)C2=Cc2ccc(N3CCN(C)CC3)cc2)cc1OC
Return: 4.70 to 5.00

Enquiry: Request: COc1cc(C=C2C(=O)N(c3ccc(C(C)(C)C)cc3)N=C2C)ccc1O
Return: > 5.00

Enquiry: Request: CCOC(=O)c1ccc(COc2ccc(/C=C3\C(=O)N(c4ccc(C(=O)O)cc4)N=C3C)cc2OC)o1
Return: > 5.00

Enquiry: Request: O=C(O)c1ccc(N2N=C(Cc3ccccc3)/C(=C/c3ccc4c(c3)OCCO4)C2=O)cc1
Return: 4.70 to 5.00

Enquiry: Request: CC1=NN(c2cccc(S(N)(=O)=O)c2)C(=O)/C1=C\c1ccc(N2CCCC2CO)cc1 (centres unmarked)
Return: > 4.40

###

biological target: IκBα ubiquitinating enzyme (SCF complex: ROC1, Cullin1, Skp1, His-TrCP1; with E1, UbcH5b) (Homo sapiens, UniProt P62877+P63208+Q13616+Q9Y297); construct: His (polyhistidine); made in house; host or cells: insect cells (baculovirus) for the SCF complex and His-E1; E. coli for His-UBCH5b; assay: Measurement of ubiquitinating enzyme activity (IκBα ubiquitination, time-resolved fluorescence with Eu(K)-labeled ubiquitin and XL665-labeled anti-GST antibody); assay type: biochemical; details: enzyme activity inhibition test, method (1), Table 5; read-out: EVALUATION
MEASUREMENT TYPE: IC50

Completed entries (count: 5):
COc1cc(/C=C2\C(=O)N(c3cccc(C(=O)O)c3)N=C2C)ccc1OCC1CCCCC1 : 10 to 20 µM
O=C1/C(=C\c2ccc(-n3cccn3)cc2)C(C2CC2)=NN1c1ccccc1 : < 40 µM
COc1cc(/C=C2\C(=O)N(c3cccc(S(N)(=O)=O)c3)N=C2C)ccc1OS(=O)(=O)c1ccc(C)cc1 : 10 to 20 µM
COCC1=NN(c2ccc(C(=O)O)cc2)C(=O)/C1=C\c1cccc2nccnc12 : < 10 µM
CCCNC(=O)COc1ccc(/C=C2\C(=O)N(c3ccc(C(=O)O)cc3)N=C2C)cc1 : 10 to 20 µM

Enquiry: May I ask what IC50 has been recorded for CC1=NN(c2cccc(C(=O)O)c2)C(=O)/C1=C\c1ccc(N2CCC(CO)CC2)cc1 ?
Return: < 10 µM

Enquiry: Request: CC1=NN(c2ccc(S(N)(=O)=O)cc2)C(=O)/C1=C\c1ccc(NC(=O)/C=C/c2ccccc2)cc1
Return: < 10 µM

Enquiry: Request: COc1ncccc1/C=C1\C(=O)N(c2cccc(C(=O)O)c2)N=C1C
Return: < 40 µM

Enquiry: Request: O=C1/C(=C\c2ccc(-n3cncn3)cc2)C(C2CC2)=NN1c1ccccc1
Return: < 40 µM

Enquiry: Request: CC1=NN(c2cccc(C(=O)N3CCCCC3)c2)C(=O)/C1=C\c1ccc2[nH]ccc2c1
Return: < 10 µM

###

target: IκBα ubiquitinating enzyme (SCF complex: ROC1, Cullin1, Skp1, His-TrCP1; with E1, UbcH5b) (Homo sapiens, UniProt P62877+P63208+Q13616+Q9Y297); construct: His (polyhistidine); made in house; host or cells: insect cells (baculovirus) for the SCF complex and His-E1; E. coli for His-UBCH5b; experiment: Measurement of ubiquitinating enzyme activity (IκBα ubiquitination, time-resolved fluorescence with Eu(K)-labeled ubiquitin and XL665-labeled anti-GST antibody); assay type: biochemical; details: enzyme activity inhibition test, method (1), Table 5; read-out: EVALUATION
pIC50: −log10 of the molar value.
MEASUREMENT TYPE: pIC50

Completed entries (count: 7):
COc1ccccc1-c1ccc(/C=C2\C(=O)N(c3ccc(C(=O)O)cc3)N=C2c2ccoc2)o1 [Compound 483] : > 5.00
COc1cc(/C=C2\C(=O)N(c3ccccn3)N=C2C)ccc1O [Compound 129] : > 4.40
CC1=NN(c2ccc(C(=O)O)cc2)C(=O)/C1=C\c1ccc2ccccc2c1 [Compound 253] : > 5.00
COc1ccc(C2=NN(c3ccc(C(=O)O)cc3)C(=O)/C2=C\c2ccc3ccccc3c2)cc1 [Compound 325] : > 5.00
COc1cc(/C=C2\C(=O)N(c3ccc(C(=O)O)cc3)N=C2C)ccc1OCC(=O)OC(C)(C)C [Compound 346] : > 5.00
COc1cc(/C=C2\C(=O)N(c3ccc(S(N)(=O)=O)cc3)N=C2C)ccc1OS(=O)(=O)c1ccc(C)cc1 [Compound 202] : 4.70 to 5.00
CC1=NN(c2cccc(C(=O)O)c2)C(=O)/C1=C\c1ccc2c(ccn2C)c1 [Compound 493] : > 5.00

For the next question, use this molecule.
Enquiry: May I ask what pIC50 has been recorded for COc1cc(/C=C2\C(=O)N(c3ccc(C(=O)O)cc3)N=C2c2ccccn2)ccc1OCc1ccccc1 [Compound 289] ?
Return: 4.70 to 5.00

###

# IC50 per record follows
target: IκBα ubiquitinating enzyme (SCF complex: ROC1, Cullin1, Skp1, His-TrCP1; with E1, UbcH5b) (Homo sapiens, UniProt P62877+P63208+Q13616+Q9Y297); construct: His (polyhistidine); made in house; host or cells: insect cells (baculovirus) for the SCF complex and His-E1; E. coli for His-UBCH5b; experiment: Measurement of ubiquitinating enzyme activity (IκBα ubiquitination, time-resolved fluorescence with Eu(K)-labeled ubiquitin and XL665-labeled anti-GST antibody); type: biochemical; details: enzyme activity inhibition test, method (1), Table 5; read-out: EVALUATION

Completed entries (count: 6):
NS(=O)(=O)c1ccc(N2N=C(C3CC3)/C(=C/c3ccc(-n4cccn4)cc3)C2=O)cc1 : < 10 µM
CC1=NN(c2ccc(C(=O)N3CCN(c4ccccc4)CC3)cc2)C(=O)C1=Cc1ccc2[nH]ccc2c1 : < 10 µM
CC1=NN(c2cccc(S(N)(=O)=O)c2)C(=O)/C1=C\c1ccc2[nH]ccc2c1 : < 10 µM
O=C(O)c1ccc(N2N=C(c3ccoc3)/C(=C/c3ccc4c(c3)OCCO4)C2=O)cc1 : < 10 µM
COc1cc(/C=C2\C(=O)N(c3ccccc3)N=C2Cc2ccccc2)ccc1OCc1ccccc1 : 10 to 20 µM
O=C(O)c1cccc(N2N=C(c3ccoc3)/C(=C/c3ccc(-c4ccccc4F)o3)C2=O)c1 : < 10 µM

Enquiry: May I ask what IC50 has been recorded for O=C1/C(=C\c2ccc(-n3cncn3)cc2)C(Cc2ccccc2)=NN1c1ccccc1 ?
Return: < 40 µM

Enquiry: Request: COc1cc(/C=C2/C(=O)N(C3CCCCC3)N=C2C)ccc1O
Return: 10 to 20 µM
